From: the RNAGym collection of RNA variant scans (doi:10.1038/s41586-018-0170-7)

B1: tRNA (parent)
chain: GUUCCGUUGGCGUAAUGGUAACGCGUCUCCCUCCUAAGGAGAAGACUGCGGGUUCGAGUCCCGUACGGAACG

# Variants of: B1
# EXPERIMENT_DESCRIPTION: yeast fitness, log relative to wild type (ln ratio); higher = fitter; tRNA-Arg(CCU), competitive growth, 37 C, 1 M NaCl
READOUT_NAME: yeast fitness (ln)
Form field (numeric): enter value without unit.

Please review the entries below; each comes with its answer.
| RESIDUE_STRING | yeast fitness (ln) |
| --- | --- |
| GCUCCAUUGGCGUAAUGGUAACGCGUUUCCCUCCUAAGGAGAAGAUUGCGGGUUCGAGUCCCGUAUGGGGCG [U2C G6A C27U C46U C66U A69G A70G] | -0.0335 |
| ACUCCGUUGGCGUAAUGGUAACGCGUUUCCCUCCUAAGGAGAAGACUGCGGGUUCGAGUCCCGUAUGGAUUG [G1A U2C C27U C66U A70U C71U] | -0.256 |
| GUUCCGUUGGCGUAAUGGUAACGCGUUUCCCUCCUAAGGAGAAGAUUGCGGGUUCGAGUCCCGUACGGGUUG [C27U C46U A69G A70U C71U] | -0.248 |
| GUUCCAUUGGCGUAAUGGUAACGCGUCUCCCUCCUAAGGAGACGAUUGCGGGUUCGAGUCCCGUAAGGAUCG [G6A A43C C46U C66A A70U] | -0.119 |
| AUUCCGUUGGCGUAAUGGUAACGCGUCUCCCUCCUAAGGAGACGAUUGCGGGUUCGAGUCCCGUACGGAAUG [G1A A43C C46U C71U] | -0.00436 |

Ask | For AGUCCUUUGGCGUAAUGGUAACGCGUCUCCCUCCUAAGGAGAAGACUGCGGGUUCGAGUCCCGUACGGAACG [G1A U2G G6U] , what is its reported yeast fitness (ln)?
Reply | -0.102

Ask | For AGUCCAUUGGCGUAAUGGUAACGCGUUUCCCUCCUAAGGAGACGAUUGCGGGUUCGAGUCCCGUAUGGAUUG [G1A U2G G6A C27U A43C C46U C66U A70U C71U] , what is its reported yeast fitness (ln)?
Reply | -0.645

Ask | For GCUCCAUUGGCGUAAUGGUAACGCGUCUCCCUCCUAAGGAGACGAUUGCGGGUUCGAGUCCCGUACGGGGCG [U2C G6A A43C C46U A69G A70G] , what is its reported yeast fitness (ln)?
Reply | -0.241
